The measured values listed here are drawn from PubChem BioAssay (NCI).

system: TK-10 renal; assay: NCI tumour cell line growth inhibition, 48 h
VALUE_KIND: GI50

{"MOLECULE": "[Cl][Cu][Cl]", "SYSTEM_NAME": "TK-10 renal", "GI50": "> 10 µM"}

For the 2 molecules below, give their GI50 values.
1. N#CC1C(N)=NNC12Nc1ccccc1S2 (stereo not drawn)
2. O=S(=O)(O)c1ccc2cc3nn(-c4ccc(/C=C/c5ccc(-n6nc7cc8ccc(S(=O)(=O)O)cc8cc7n6)cc5S(=O)(=O)O)c(S(=O)(=O)O)c4)nc3cc2c1

A)
41.5 µM
10.6 µM

---

system: HOP-92 NSCLC; experiment: NCI tumour cell line growth inhibition, 48 h; in the data active = GI50 below about 0.43 µM; inactive = the rest
Please answer using one outcome listed in t (active), f (inactive)

Solved cases below.
{"SMILES_STR": "O=C(c1ccco1)c1c(C(F)(F)F)n([O-])c2cc(F)c(F)cc2[n+]1=O", "CLASSIFICATION": "f"}
{"SMILES_STR": "[Cl][Cu][Cl]", "CLASSIFICATION": "f"}

Q) How did this test come out for CCn1ccnc1C(=O)/C=C/c1ccc(CC(=O)Nc2ccc(F)cc2)cc1 ?
A) f

Q) Fill in: this test's call for O=C(O)CCCc1ccccc1 is ___
A) f
